Values from ChEMBL document CHEMBL4359837

- subject.of.test: Mast/stem cell growth factor receptor Kit (Homo sapiens, UniProt P10721, 560-578DEL/T670I)
- Sequence (P10721 whole entry, looked up, stated change not applied): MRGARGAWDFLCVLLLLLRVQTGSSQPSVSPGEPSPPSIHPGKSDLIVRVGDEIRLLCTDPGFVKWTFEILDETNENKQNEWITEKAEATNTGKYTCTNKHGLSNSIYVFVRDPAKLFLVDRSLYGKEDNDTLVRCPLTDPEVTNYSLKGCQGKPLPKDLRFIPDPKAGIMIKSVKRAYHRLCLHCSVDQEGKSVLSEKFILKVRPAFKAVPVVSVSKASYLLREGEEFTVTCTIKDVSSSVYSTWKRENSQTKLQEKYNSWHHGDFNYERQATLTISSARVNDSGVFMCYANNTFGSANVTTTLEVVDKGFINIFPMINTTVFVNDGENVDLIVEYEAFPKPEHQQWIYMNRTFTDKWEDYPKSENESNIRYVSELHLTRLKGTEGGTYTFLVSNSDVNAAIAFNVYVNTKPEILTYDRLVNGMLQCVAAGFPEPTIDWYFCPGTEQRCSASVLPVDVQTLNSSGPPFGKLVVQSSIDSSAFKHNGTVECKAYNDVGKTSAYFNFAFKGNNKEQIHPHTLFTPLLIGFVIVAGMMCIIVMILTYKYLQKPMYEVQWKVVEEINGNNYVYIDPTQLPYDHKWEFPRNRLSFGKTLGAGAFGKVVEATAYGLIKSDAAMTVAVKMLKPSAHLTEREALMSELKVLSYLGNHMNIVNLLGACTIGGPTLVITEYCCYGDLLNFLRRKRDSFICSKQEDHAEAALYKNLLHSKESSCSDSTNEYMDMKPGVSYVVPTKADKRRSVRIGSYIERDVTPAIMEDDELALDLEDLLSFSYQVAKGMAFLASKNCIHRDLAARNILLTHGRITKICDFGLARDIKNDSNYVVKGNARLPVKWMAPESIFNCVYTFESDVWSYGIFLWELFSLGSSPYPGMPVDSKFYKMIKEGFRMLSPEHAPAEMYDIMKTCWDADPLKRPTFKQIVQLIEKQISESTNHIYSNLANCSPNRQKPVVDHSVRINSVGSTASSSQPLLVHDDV
- Type: cell-based, GISTT1
reported.metric: EC50

get_value(item= `COc1cc2nccc(Oc3ccc(NC(=O)Cc4ccc(Cl)c(C(F)(F)F)c4)cc3)c2cc1OC` , readout=EC50) returns < 100 nM

###

- subject.of.test: Mast/stem cell growth factor receptor Kit (Homo sapiens, UniProt P10721, 560-578DEL/T670I)
- Format: cell-based
reported.metric: EC50

get_value(item= `COc1cc2nccc(Oc3ccc(NC(=O)Cc4ccc(Cl)c(C(F)(F)F)c4)cc3)c2cc1OC` , readout=EC50) returns < 100 nM

###

- subject.of.test: Macrophage colony-stimulating factor 1 receptor (Homo sapiens)
- Sequence (P07333 whole entry, the tested form may be a part): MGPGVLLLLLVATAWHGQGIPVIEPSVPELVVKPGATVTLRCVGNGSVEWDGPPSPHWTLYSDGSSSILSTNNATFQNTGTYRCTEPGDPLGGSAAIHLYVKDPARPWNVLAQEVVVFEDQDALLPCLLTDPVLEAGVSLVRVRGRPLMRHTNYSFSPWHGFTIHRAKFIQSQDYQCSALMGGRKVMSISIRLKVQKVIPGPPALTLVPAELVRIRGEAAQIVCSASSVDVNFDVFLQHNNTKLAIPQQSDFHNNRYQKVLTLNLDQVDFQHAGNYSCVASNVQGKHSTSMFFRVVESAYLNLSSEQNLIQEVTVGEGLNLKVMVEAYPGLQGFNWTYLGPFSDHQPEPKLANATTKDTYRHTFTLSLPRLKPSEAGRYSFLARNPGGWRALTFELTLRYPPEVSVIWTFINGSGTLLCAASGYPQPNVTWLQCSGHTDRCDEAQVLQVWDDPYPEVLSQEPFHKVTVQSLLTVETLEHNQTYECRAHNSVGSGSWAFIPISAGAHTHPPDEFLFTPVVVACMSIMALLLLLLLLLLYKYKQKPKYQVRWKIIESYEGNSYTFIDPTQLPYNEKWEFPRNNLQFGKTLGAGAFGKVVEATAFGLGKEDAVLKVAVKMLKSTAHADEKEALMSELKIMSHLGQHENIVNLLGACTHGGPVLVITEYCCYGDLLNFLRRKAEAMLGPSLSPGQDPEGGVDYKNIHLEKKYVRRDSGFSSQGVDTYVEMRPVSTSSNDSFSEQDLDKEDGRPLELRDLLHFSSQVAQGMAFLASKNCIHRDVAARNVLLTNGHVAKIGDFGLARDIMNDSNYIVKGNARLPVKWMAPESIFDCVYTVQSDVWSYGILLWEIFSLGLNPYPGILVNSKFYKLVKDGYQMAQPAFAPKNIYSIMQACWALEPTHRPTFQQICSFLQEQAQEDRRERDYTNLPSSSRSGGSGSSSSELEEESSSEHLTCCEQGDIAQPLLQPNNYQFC
- test: Inhibition of recombinant human His-tagged CSF1R cytoplasmic domain (538 to 910 residues) expressed in baculovirus expression system by Z-lyte assay
reported.metric: IC50 (µM)
The figure you give is taken to be in µM; do not add the unit.

get_value(item= `COc1cc2nccc(Oc3ccc(NC(=O)Cc4ccc(Cl)c(C(F)(F)F)c4)cc3)c2cc1OC` , readout=IC50) returns 0.018

###

- subject.of.test: Mast/stem cell growth factor receptor Kit (Homo sapiens, UniProt P10721, 560-578DEL/T670I)
- Format: cell-based, GISTT1
pEC50: −log10 of the molar value.
reported.metric: pEC50

pEC50 of `COc1cc2nccc(Oc3ccc(NC(=O)Cc4ccc(Cl)c(C(F)(F)F)c4)cc3)c2cc1OC` , assay on Mast/stem cell growth factor receptor Kit (Homo sapiens, UniProt P10721, 560-578DEL/T670I), is > 7.00

###

- subject.of.test: Mast/stem cell growth factor receptor Kit (Mus musculus) (UniProt P05532)
- Sequence (P05532 whole entry): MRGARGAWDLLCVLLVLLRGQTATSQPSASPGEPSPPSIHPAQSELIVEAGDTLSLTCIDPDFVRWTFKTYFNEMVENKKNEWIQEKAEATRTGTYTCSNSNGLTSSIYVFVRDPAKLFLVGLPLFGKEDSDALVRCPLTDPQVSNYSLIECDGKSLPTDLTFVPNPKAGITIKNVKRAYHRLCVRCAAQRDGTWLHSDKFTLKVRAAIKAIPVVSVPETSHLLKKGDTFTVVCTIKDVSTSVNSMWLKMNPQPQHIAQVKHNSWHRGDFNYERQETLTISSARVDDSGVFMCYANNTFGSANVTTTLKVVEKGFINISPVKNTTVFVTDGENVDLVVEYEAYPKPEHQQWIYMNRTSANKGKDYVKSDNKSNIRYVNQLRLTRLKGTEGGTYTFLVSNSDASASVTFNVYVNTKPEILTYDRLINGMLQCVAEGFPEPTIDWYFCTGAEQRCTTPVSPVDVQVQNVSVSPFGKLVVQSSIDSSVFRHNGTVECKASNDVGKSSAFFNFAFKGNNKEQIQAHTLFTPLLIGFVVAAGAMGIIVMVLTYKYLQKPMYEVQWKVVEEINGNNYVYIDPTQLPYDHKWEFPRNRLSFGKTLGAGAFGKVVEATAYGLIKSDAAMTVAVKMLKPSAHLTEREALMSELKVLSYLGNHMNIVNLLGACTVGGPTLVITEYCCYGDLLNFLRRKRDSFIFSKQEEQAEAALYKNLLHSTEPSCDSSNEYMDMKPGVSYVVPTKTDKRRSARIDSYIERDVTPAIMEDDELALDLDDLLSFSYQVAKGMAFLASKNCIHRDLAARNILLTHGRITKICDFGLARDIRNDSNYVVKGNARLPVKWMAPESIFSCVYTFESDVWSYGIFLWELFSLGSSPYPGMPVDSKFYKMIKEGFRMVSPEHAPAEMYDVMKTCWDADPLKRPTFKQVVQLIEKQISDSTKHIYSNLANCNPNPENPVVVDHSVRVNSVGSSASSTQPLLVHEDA
- test: Inhibition of c-KIT in mouse BAF3(transformed) cells assessed as growth inhibition after 72 hrs by CCK8 assay
reported.metric: log10(GI50) (log10 of the value in µM)
Scale: log10; quantity: GI50; unit before log: µM

[
  {
    "structure.notation": "CCC(=O)NCC1CCN(c2ccc(NC(=O)Nc3cccc(Oc4ccnc5cc(OC)c(OC)cc45)c3)cc2C(F)(F)F)CC1",
    "log10(GI50)": -1.24
  },
  {
    "structure.notation": "COc1cc2nccc(Oc3ccc(NC(=O)CN4CCN(C)CC4)cc3)c2cc1OC",
    "log10(GI50)": 0.87
  },
  {
    "structure.notation": "COc1cc2nccc(Nc3ccc(NC(=O)Cc4ccc(Cl)c(C(F)(F)F)c4)cc3)c2cc1OC",
    "log10(GI50)": -0.13
  }
]

get_value(item= `COc1cc2nccc(Oc3ccc(NC(=O)Cc4ccc(Cl)c(C(F)(F)F)c4)cc3)c2cc1OC` , readout=log10(GI50)) returns -3.00

get_value(item= `COc1cc2nccc(Oc3ccc(NC(=O)Cc4c(F)cccc4F)cc3)c2cc1OC` , readout=log10(GI50)) returns 0.44

get_value(item= `COc1cc2nccc(Oc3ccc(NC(=O)Cc4ccc(Cl)c(C(F)(F)F)c4)c(C)c3)c2cc1OC` , readout=log10(GI50)) returns -1.21

get_value(item= `COc1cc2nccc(Oc3ccc(NC(=O)Cc4ccncc4)cc3)c2cc1OC` , readout=log10(GI50)) returns 0.67

get_value(item= `COc1cc2nccc(Sc3ccc(NC(=O)Cc4ccc(Cl)c(C(F)(F)F)c4)cc3)c2cc1OC` , readout=log10(GI50)) returns -0.81
